Molecular target: Ubiquitin-conjugating enzyme E2 N (Homo sapiens)
Test: UBC13 polyubiquitination inhibitors, SAR follow-up, biochemical, TR-FRET, set 3 (AID 602205)
Settings: TR-FRET polyubiquitination assay
Calls of active or inactive are those of the source. The rule behind the calls is not given here.
API: response.call in active, inactive

Example entries begin here.
Fc1ccccc1N1CCN(c2ncnc3c2nc2n3CCCC2)CC1 | inactive
O=C(Nc1cccc(Cl)c1)C1CCN(c2ncnc3c2nc2n3CCCCC2)CC1 | active

Let us examine a further case.
Query :: // param item: `Cc1ccc(NC(=O)C2CCN(c3ncnc4c3nc3n4CCCCC3)CC2)cc1F` ; yields the recorded call
Result :: inactive

* * *

Biological target: UniProt:P61088
Experiment: UBC13 polyubiquitination inhibitors, SAR follow-up, biochemical, TR-FRET, set 3 (AID 602205)
Settings: TR-FRET polyubiquitination assay
Activity calls are given as the source filed them. The rule behind the calls is not given here.
measured_parameter: IC50

Use these answered entries as a reference point.
COc1cc(Cl)c(C)cc1NC(=O)C1CCN(c2ncnc3c2nc2n3CCCCC2)CC1 | > 100 µM (inactive)
COc1cc(OC)c(NC(=O)C2CCN(c3ncnc4c3nc3n4CCCCC3)CC2)cc1Cl | > 100 µM (inactive)
CCOc1ccc(CCNC(=O)CCCCCN2C(=O)c3ccccc3C2=O)cc1OCC | > 100 µM (inactive)
Cc1ccc(NC(=O)C2CCN(c3ncnc4c3nc3n4CCCCC3)CC2)c(Cl)c1 | > 100 µM (inactive)
COc1ccc(NC(=O)C2CCN(c3ncnc4c3nc3n4CCCCC3)CC2)cc1Cl | > 100 µM (inactive)

Query :: Quick one: IC50 of `O=C(Nc1cc(F)ccc1F)C1CCN(c2ncnc3c2nc2n3CCCCC2)CC1` ?
Result :: inactive

Query :: Now consider CC1CN(S(=O)(=O)c2ccc(NC(=O)CCCCCN3C(=O)c4ccccc4C3=O)cc2)CC(C)O1 (stereo unspecified) .
Result :: > 100 µM (inactive)

Query :: Similarly, `COc1ccc(Cl)cc1NC(=O)C1CCN(c2ncnc3c2nc2n3CCCCC2)CC1` ?
Result :: inactive

Query :: Field entry: `Cc1c(Cl)cccc1NC(=O)C1CCN(c2ncnc3c2nc2n3CCCCC2)CC1`
Result :: inactive

Query :: `Cc1cc(Cl)ccc1NC(=O)C1CCN(c2ncnc3c2nc2n3CCCCC2)CC1` ?
Result :: inactive

Query :: Now give it for `Cc1ccc(Cl)cc1N1CCN(c2ncnc3c2nc2n3CCCC2)CC1` too.
Result :: > 100 µM (inactive)

Query :: Request: `O=C(CCCCCN1C(=O)c2ccccc2C1=O)NCCc1ccccc1`
Result :: > 100 µM (inactive)

* * *

Molecular target: Ubiquitin-conjugating enzyme E2 N (Homo sapiens) (UniProt P61088)
Sequence (P61088 whole entry, looked up): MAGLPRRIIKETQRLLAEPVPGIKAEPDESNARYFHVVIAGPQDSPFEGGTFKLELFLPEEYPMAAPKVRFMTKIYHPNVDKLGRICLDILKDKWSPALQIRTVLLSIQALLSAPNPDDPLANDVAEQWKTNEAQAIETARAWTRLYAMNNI
Experiment: UBC13 polyubiquitination inhibitors, SAR follow-up, biochemical, TR-FRET, set 3 (AID 602205)
Conditions: TR-FRET polyubiquitination assay
Active and inactive are the calls of the source. The rule behind the calls is not given here.
Listing of entries alongside the reported IC50.

Consider the following illustrative entries.
c1nc(N2CCC(N3CCCCC3)CC2)c2nc3n(c2n1)CCCC3 | > 100 µM (inactive)
c1ccc(CN2CCN(c3ncnc4c3nc3n4CCCC3)CC2)cc1 | > 100 µM (inactive)

Now examine the next entry.
Query :: Quick check: IC50 of `O=C(Nc1ccc(CN2CCCCC2)cc1)C1CCN(c2ncnc3c2nc2n3CCCCC2)CC1` ?
Result :: > 100 µM (inactive)
